target system: Human immunodeficiency virus type 1 protease (Human immunodeficiency virus 1, UniProt Q72874)
pIC50: −log10 of the molar value.
observable: pIC50

INSERT INTO results (smiles_str, reported_value) VALUES
  ('COc1cc(/C=C/C(=O)N[C@@H](Cc2ccccc2)[C@H](O)CN(CC(C)C)S(=O)(=O)c2ccc(N)cc2)cc(OC)c1O', 6.84),
  ('COc1cc(/C=C/C(=O)N[C@@H](Cc2ccccc2)[C@H](O)CN(CC(C)C)S(=O)(=O)c2ccc(SC)cc2)cc(OC)c1O', 7.19),
  ('COc1ccc(S(=O)(=O)N(C[C@@H](O)[C@H](Cc2ccccc2)NC(=O)/C=C/c2ccc(O)c(O)c2)C2CC2)cc1', 7.71),
  ('COc1cc(CCC(=O)N[C@@H](Cc2ccccc2)[C@H](O)CN(CC(C)C)S(=O)(=O)c2ccc(N)cc2)c(OC)cc1O', 7.16),
  ('COc1ccc(S(=O)(=O)N(CC(C)C)C[C@@H](O)[C@H](Cc2ccccc2)NC(=O)CCc2ccc(O)c(OC)c2)cc1', 8.96),
  ('COc1cc(/C=C/C(=O)N[C@@H](Cc2ccccc2)[C@H](O)CN(CC(C)C)S(=O)(=O)c2ccc(N)cc2)ccc1O', 8.51),
  ('COc1ccc(S(=O)(=O)N(CC(C)C)C[C@@H](O)[C@H](Cc2ccccc2)NC(=O)CCc2cc(OC)c(O)cc2OC)cn1', 7.37),
  ('COc1ccc(S(=O)(=O)N(C[C@@H](O)[C@H](Cc2ccccc2)NC(=O)CCc2ccc(O)c(OC)c2)C2CC2)cc1', 7.49),
  ('COc1ccc(S(=O)(=O)N(CC(C)C)C[C@@H](O)[C@H](Cc2ccccc2)NC(=O)/C=C/c2ccc(O)c(O)c2)cc1', 9.80),
  ('CCCN(C[C@@H](O)[C@H](Cc1ccccc1)NC(=O)CCc1ccc(O)c(OC)c1)S(=O)(=O)c1ccc(OC)cc1', 8.77),
  ('COc1cc(CCC(=O)N[C@@H](Cc2ccccc2)[C@H](O)CN(CC(C)C)S(=O)(=O)c2ccc(SC)cc2)ccc1O', 8.11),
  ('COc1ccc(S(=O)(=O)N(CC(C)C)C[C@@H](O)[C@H](Cc2ccccc2)NC(=O)/C=C/c2ccc(O)c(OC)c2)cn1', 8.62),
  ('CCCN(C[C@@H](O)[C@H](Cc1ccccc1)NC(=O)CCc1ccc(O)c(O)c1)S(=O)(=O)c1ccc(OC)cc1', 9.27);
